test.system: UniProtKB P51617
Sequence (P51617 whole entry, species assumed): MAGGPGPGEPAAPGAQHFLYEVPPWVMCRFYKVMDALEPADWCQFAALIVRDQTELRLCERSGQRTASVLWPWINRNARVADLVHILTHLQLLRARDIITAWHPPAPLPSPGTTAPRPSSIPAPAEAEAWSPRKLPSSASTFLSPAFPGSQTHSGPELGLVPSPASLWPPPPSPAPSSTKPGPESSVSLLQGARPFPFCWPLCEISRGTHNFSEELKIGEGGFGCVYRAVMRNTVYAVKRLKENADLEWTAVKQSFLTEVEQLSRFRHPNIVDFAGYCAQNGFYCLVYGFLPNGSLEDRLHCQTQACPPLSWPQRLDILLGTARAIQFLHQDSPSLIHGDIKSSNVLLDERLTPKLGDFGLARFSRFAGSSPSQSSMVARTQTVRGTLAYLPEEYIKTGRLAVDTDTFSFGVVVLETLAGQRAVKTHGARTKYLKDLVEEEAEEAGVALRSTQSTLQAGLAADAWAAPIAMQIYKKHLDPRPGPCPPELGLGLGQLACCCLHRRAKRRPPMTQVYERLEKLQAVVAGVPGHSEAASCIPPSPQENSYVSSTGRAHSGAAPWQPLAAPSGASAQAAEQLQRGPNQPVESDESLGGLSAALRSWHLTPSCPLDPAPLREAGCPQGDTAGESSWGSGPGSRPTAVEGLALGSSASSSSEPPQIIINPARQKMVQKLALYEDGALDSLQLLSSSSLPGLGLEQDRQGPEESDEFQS
assay.name: Kinase profiling IRAK1
Format: biochemical
run.conditions: 100 micromolar inhibitor concentration; 100 is no change
Label scheme for residual kinase activity, IRAK1: lower than 60 is No, 60 and above is Yes.

[
  {
    "structure.string": "O=C(Nc1nc2ccc(O)cc2s1)c1cccnc1",
    "qualitative.label": "No"
  },
  {
    "structure.string": "O=C(Nc1nc2ccc(O)cc2s1)c1ccccc1",
    "qualitative.label": "No"
  },
  {
    "structure.string": "O=C(Nc1nc2cc(O)ccc2s1)c1ccccn1",
    "qualitative.label": "No"
  },
  {
    "structure.string": "O=C(Nc1nc2ccc(O)cc2s1)c1ccncc1",
    "qualitative.label": "No"
  },
  {
    "structure.string": "O=C(Nc1nc2cc(O)ccc2s1)c1cccnc1",
    "qualitative.label": "No"
  },
  {
    "structure.string": "O=C(Nc1nc2cc(O)ccc2s1)c1ccncc1",
    "qualitative.label": "Yes"
  },
  {
    "structure.string": "CC(=O)Nc1nc2ccccc2s1",
    "qualitative.label": "Yes"
  },
  {
    "structure.string": "O=C(Nc1nc2ccc(O)cc2s1)c1ccccn1",
    "qualitative.label": "No"
  }
]
